# Assay system: T1, LAG-3-hFc protein (human LAG-3 extracellular region with hFc tag) (human, UniProt P18627 23-450)
# T1 construct: also called hLAG-3-hFc; LAG-3 protein; not shown: human IgG Fc fragment (hFc) of the pCpC vector
# T1 sequence: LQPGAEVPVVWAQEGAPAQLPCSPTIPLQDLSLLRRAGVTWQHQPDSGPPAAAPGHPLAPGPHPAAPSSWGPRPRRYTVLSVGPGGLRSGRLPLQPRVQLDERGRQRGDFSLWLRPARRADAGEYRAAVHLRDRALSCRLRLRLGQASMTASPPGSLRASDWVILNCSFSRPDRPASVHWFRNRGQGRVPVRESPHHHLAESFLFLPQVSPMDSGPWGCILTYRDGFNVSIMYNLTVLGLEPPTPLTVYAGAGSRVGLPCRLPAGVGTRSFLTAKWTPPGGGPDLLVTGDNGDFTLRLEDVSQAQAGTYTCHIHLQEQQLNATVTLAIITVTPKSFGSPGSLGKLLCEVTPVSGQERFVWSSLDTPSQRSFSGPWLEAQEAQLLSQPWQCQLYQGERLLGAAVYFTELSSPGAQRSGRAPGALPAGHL
# Assay name: FACS, inhibition of LAG-3-hFc binding to MHC II on Raji cells, antibody 200.000 nM
# Description: The FACS reaction plate incubating the Raji cells was centrifuged to discard the supernatant. The above mixture was added as 100 μl per well to Raji cells and incubated on ice for 1-2 hours. […] The plate was washed 2-3 times by centrifugation with blocking solution (PBS, 2% fetal bovine serum), added with 100 microliters of PBS per well to suspend cells, and detected using FACS (FACS Calibur, BD) and the results were analyzed. […]
Result type: Inhibition rate (%)
Give bare numbers, in %.

Q. I'd like to know its Inhibition rate (%). The binder in question is 409B11E12 mouse-human chimeric antibody (antibody, V domains shown, also called mAb104-409B11E12) VH: QVQLQQSGAELVRPGASVTLSCKASGYTFTDYEMHWVKQTTVHGLEWIGATDPETSYSAYNQKFKGKAILTADKSSSTAYMELRSLTSEDSAVYYCIATGWNDWGQGTSLTVSS VL: DLKMTQSPSSMYASLGERVTITCKASQDINSYLSWFQQKPGKSPKTLIYRANRLLDGVPSRFSGSGSGQDYSLTISSLEYEDMGIYYCLQYDEFPYTFGGGTKLEIK
A. 94.8
